// provenance: the FLAb antibody collection (doi:10.7554/elife.23156)

Below, each entry is listed alongside its reported Kd.
B1: scFv; the commonest letter at each place (parent)
chain 1: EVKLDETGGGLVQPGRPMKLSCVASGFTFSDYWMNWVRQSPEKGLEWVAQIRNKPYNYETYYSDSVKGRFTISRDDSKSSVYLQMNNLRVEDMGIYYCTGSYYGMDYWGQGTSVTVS
chain 2: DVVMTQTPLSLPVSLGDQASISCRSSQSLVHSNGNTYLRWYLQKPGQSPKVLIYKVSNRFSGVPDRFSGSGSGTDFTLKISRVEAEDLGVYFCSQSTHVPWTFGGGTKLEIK

Variants of: B1
experiment-notes: Kd (Tite-Seq)
particulars: with fluorescein; format: scFv 4-4-20, heavy + light

var="chain 1 Y32K V37S" observed="≥ 10 µM"
var="chain 1 G100H D106F" observed="9.5 µM"
var="chain 1 S30I" observed="0.00215 µM"
var="chain 1 F29M W33M" observed="≥ 10 µM"
var="chain 1 Y102L D106G" observed="≥ 10 µM"

GET /values?readout=Kd&item= chain 1 Y32S W33F ≥ 10 µM

Another: chain 1 S101Q Y102D W108I ≥ 10 µM

Another: chain 1 Y102I Y103E G109K ≥ 10 µM

Another: chain 1 Y107Q 0.0194 µM

Another: chain 1 M105S G109C ≥ 10 µM

Another: chain 1 N35W ≥ 10 µM
